Target: T1, human LIV-1 (human, UniProt Q13433 29-755)
T1 construct: whole, on cells; also called H-LIV1
T1 sequence (looked up): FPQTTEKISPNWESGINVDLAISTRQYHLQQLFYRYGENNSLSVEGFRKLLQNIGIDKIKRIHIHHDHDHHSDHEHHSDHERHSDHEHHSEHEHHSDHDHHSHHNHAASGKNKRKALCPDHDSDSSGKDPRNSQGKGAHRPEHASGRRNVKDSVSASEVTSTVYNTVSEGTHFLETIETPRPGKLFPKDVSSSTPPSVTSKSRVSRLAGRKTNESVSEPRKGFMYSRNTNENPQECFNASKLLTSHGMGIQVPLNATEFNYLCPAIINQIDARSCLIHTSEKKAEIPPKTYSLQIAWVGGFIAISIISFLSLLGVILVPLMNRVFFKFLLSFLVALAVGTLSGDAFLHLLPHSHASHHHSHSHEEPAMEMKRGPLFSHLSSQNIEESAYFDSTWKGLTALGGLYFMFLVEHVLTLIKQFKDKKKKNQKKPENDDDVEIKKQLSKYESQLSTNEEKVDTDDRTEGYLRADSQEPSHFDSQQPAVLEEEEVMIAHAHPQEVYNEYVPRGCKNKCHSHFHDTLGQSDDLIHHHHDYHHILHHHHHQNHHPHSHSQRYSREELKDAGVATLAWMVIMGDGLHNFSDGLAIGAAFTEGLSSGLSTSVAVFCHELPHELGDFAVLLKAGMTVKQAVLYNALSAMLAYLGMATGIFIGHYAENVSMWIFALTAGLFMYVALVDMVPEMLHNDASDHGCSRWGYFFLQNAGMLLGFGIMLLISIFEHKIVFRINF
Assay: FACS, human LIV-1 cells
For each record, write down the corresponding Top (MFI).
Report only the number, with the unit MFI understood.

Need Top (MFI) of 290F10G10.p1.Z4 (antibody, V domains shown) VH: EVQLVQSGAEVKKPGASVKVSCKASGYTFTSYWIHWVRQAPGQGLEWMGTIYPGDADTRSTQKFKDRVTVTADKSTSTVYMELSSLRSEDTAVYYCARSLIHDDYDKYYFDYWGQGTTVTVSS VL: DIQMTQSPSSLSASVGDRVTITCKARQDINKYIAWYQQKPGKAPKLLIYYTSILQPGVPSRFSGSGSGRDYTFTISSLQPEDIATYYCLQYDYFFTFGGGTKVEIK , thanks.
7790

Now the same for 290F10G10.p1.Z2 (antibody, V domains shown, also called 290F10G10.z2; LM-001) VH: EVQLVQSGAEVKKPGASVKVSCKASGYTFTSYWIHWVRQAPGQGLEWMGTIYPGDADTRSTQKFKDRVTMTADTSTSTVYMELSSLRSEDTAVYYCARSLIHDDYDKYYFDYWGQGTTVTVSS VL: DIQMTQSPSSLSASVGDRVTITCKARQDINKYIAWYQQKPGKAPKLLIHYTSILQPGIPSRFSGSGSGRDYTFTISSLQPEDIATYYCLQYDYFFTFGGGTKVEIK
7660

One more binder: 290F10G10.p1.Z9 (antibody, V domains shown) VH: EVQLVQSGAEVKKPGASVKVSCKASGYTFTSYWIHWVRQAPGQGLEWIGTIYPGDADTRSTQKFKDKATVTADKSTSTVYMELSSLRSEDTAVYYCARSLIHDDYDKYYFDYWGQGTTVTVSS VL: DIQMTQSPSSLSASVGDRVTITCKARQDINKYIAWYQHKPGKGPKLLIHYTSILQPGIPSRFSGSGSGRDYTFTISSLQPEDIATYYCLQYDYFFTFGGGTKVEIK
7940

Taken from patent US20240325555A1.
